target: Reverse transcriptase (Human immunodeficiency virus 2); assay: Inhibition of purified HIV-2 reverse transcriptase
measurement-type: IC50 (µM)

[[record]]
smiles_record = "Nc1c(S(=O)(=O)O)cc2cc(S(=O)(=O)O)cc(O)c2c1O"
measurement_unit = "µM"
experimental_result = 452

[[record]]
smiles_record = "O=C(CCCCCCCCC(=O)Nc1cc(S(=O)(=O)O)cc2cc(S(=O)(=O)O)cc(O)c12)Nc1cc(S(=O)(=O)O)cc2cc(S(=O)(=O)O)cc(O)c12"
measurement_unit = "µM"
experimental_result = 122


I. O=C(O)CCCCCCCCC(=O)Nc1cc(S(=O)(=O)O)cc2cc(S(=O)(=O)O)cc(O)c12
II. O=C(O)c1cc(NS(=O)(=O)c2ccc(-c3ccc(S(=O)(=O)Nc4cc(C(=O)O)c(O)c(S(=O)(=O)O)c4)cc3)cc2)cc(S(=O)(=O)O)c1O
Ask | Min IC50? I | II # reply format: chosen label
Reply | I
(I: 170 µM, II: 478 µM)
